# Experimental details: in vitro
# Assay type: in vitro ADME, mice
# Condition parameters: Crl:CD-1 (ICR), mouse, pH 7.4; murine serum, equilibrium dialysis, 37° C., 5 to 6 hours; read-out: Protein binding rate (converted)
Counter-ions that a name gives are not always drawn.
Please use satisfied whenever fraction unbound is not below 0.04, and not satisfied whenever it is.

Past entries and their recorded results:
- Compound: "CC[C@]1(c2cc(NS(=O)(=O)C3CC3)ccc2F)[C@@H]2CN(CC3(O)Cc4ccccc4C3)C[C@@H]21 [Example 2-(b), hydrochloride]"
  Classification: "not satisfied"
- Compound: "CC[C@]1(c2cc(F)cc(NS(=O)(=O)C3CC3)c2)[C@@H]2CN(CC3(OC)Cc4ccccc4C3)C[C@@H]21 [Example 12-(b), hydrochloride]"
  Classification: "not satisfied"

Proceed to the following item.
Prompt: Say whether CC[C@]1(c2cccc(NS(=O)(=O)C3CC3)c2)[C@@H]2CN(CC3(O)Cc4ccccc4C3)C[C@@H]21 shows fraction unbound of 0.04 or more.
Completion: not satisfied
